- system tested: hMC4R (Homo sapiens (Human))
- protocol summary: In vitro binding affinity assay using hMC4R (radioligand competition binding, CHO cell membranes)
- condition info: competition with [125I]-(Nle4, D-Phe7)-α-MSH 0.5 nM; Ki from IC50 by Cheng-Prusoff; read-out: Ki (nM) geometric mean
Friendly reminder: Ki below 60 nM is 1, at or above is 0.

Strictly below 60 nM in Ki? [2H]C([2H])([2H])n1nc(-c2ccc(N[C@H]3CCN(C(=O)[C@H](C)c4cc(OC)ncc4F)C3)nc2C)nc1C(F)(F)F [Example 42] 1

Is it true that Ki reported for COc1cc([C@@H](C)C(=O)N2CC[C@H](Nc3ccc(-c4cn(C)c(C(C)(F)F)n4)c(C)n3)C2)c(C)cn1 (single isomer, unassigned) [Example 16B] is less than 60 nM? 1

Take the compound COc1cc([C@@H](C)C(=O)N2CC[C@H](Nc3ccc(-c4cn(C)c(C(F)F)n4)c(C)n3)C2)c(F)cn1 (single isomer, unassigned) [Example 38A] and say whether its Ki is less than 60 nM. 0

is_below(Ki, 60 nM) for COc1cc(OC(F)F)cc([C@@H](C)C(=O)N2CC[C@H](Nc3ccc(-c4nc(C(C)(F)F)n(C)n4)c(C)n3)C2)c1 (single isomer, unassigned) [Example 40A] ? 1

Hello, is Ki of the following compound strictly smaller than 60 nM? COc1cc([C@@H](C)C(=O)N2CC[C@H](Nc3ccc(-c4ncccn4)c(C)n3)C2)cc(OC(F)F)n1 (single isomer, unassigned) [Example 30B] 1

# check: Ki < 60 nM for COc1cc([C@@H](C)C(=O)N2CC[C@H](Nc3ccc(-c4ncccn4)c(C)n3)C2)c(C)cn1 (single isomer, unassigned) [Example 22A] 0

----------
- system tested: human Melanocortin-4 receptor (MC4R) (Homo sapiens (Human))
- Sequence (P32245 whole entry): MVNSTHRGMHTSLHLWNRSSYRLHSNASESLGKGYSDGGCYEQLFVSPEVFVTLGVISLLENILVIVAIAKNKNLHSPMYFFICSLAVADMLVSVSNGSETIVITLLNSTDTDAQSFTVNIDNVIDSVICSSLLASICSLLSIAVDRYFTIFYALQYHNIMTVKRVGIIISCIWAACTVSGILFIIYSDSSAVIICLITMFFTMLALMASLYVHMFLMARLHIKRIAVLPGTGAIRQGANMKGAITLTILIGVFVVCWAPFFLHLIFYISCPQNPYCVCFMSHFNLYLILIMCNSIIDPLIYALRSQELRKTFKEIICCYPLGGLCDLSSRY
- protocol summary: Functional in vitro MC4R antagonist potency assay (intracellular cAMP, HTRF, CHO cells)
- Format: cell-based
- condition info: cAMP after EC80 agonist stimulation (200 nM αMSH); Kb from IC50 by Leff-Dougall equation; read-out: Kb (nM) Antagonist geometric mean
property name: Kb (nM)
Just the number please, in nM, no unit attached.

Value lookup for Kb; key = COc1cccc([C@@H](C)C(=O)N2CC[C@H](Nc3ccc(-c4cn(C)c(C(C)(F)F)n4)c(C)n3)C2)c1 (single isomer, unassigned) [Example 14B] 14

Query (molecule): `Cc1nc(N[C@H]2CCN(C(=O)Cc3ccc(F)cc3)C2(C)C)ccc1-c1cn(C)cn1` ; field requested: Kb 33

GET /values?readout=Kb&item= COc1cc([C@@H](C)C(=O)N2CC[C@H](Nc3ccc(-c4nc(C(F)F)n(C)n4)c(C)n3)C2)c(Cl)cn1 (single isomer, unassigned) [Example 24B] 0.96

Please report the recorded Kb for COc1cc([C@@H](C)C(=O)N2CC[C@H](Nc3ccc(-c4ncccn4)c(C)n3)C2)c(C)cn1 (single isomer, unassigned) [Example 22B] . 8.1

Item under review: COc1cc([C@@H](C)C(=O)N2CC[C@H](Nc3ccc(-c4cn(C)c(C(C)(F)F)n4)c(C)n3)C2)c(F)cn1 (single isomer, unassigned) [Example 21B] . Reported Kb? 2.6

Which measured Kb value corresponds to COc1cc([C@@H](C)C(=O)N2CC[C@H](Nc3ccc(-c4ncccn4)c(C)n3)C2)cc(OC(F)F)n1 (single isomer, unassigned) [Example 30B] ? 6.8

I'd like to know its Kb. The molecule in question is COc1cc([C@@H](C)C(=O)N2CC[C@H](Nc3ccc(-c4cn(C)c(C(F)F)n4)c(C)n3)C2)c(F)cn1 (single isomer, unassigned) [Example 38B] 3.2

Reported Kb, molecule COc1cc([C@@H](C)C(=O)N2CC[C@H](Nc3ccc(-c4nc(C(F)F)n(C)n4)c(C)n3)C2)ccn1 (single isomer, unassigned) [Example 33B] : ____ 3.3

Report Kb for `Cc1nc(N[C@H]2CCN(C(=O)Cc3cc(F)c(F)c(F)c3)C2)ccc1-c1cn(C)c(C(F)F)n1` please. 1.3

----------
Assignment: determine reported Ki for the given compounds.
- system tested: hMC4R (Homo sapiens (Human), UniProt P32245)
- Sequence (P32245 whole entry): as above
- protocol summary: In vitro binding affinity assay using hMC4R (radioligand competition binding, CHO cell membranes)
- condition info: competition with [125I]-(Nle4, D-Phe7)-α-MSH 0.5 nM; Ki from IC50 by Cheng-Prusoff; read-out: Ki (nM) geometric mean
Provide the measurement as a number trailed by its unit.

// Ki lookup, key: `Cc1nc(N[C@H]2CCN(C(=O)Cc3ccc(F)cc3)C2(C)C)ccc1-c1cn(C)cn1` 4.2 nM

Which Ki is listed for `COc1cc([C@@H](C)C(=O)N2CC[C@H](Nc3ccc(-c4nnn(C)n4)c(C)n3)C2)c(F)cn1` ? 2.6 nM

Need Ki of `Cc1nc(N[C@H]2CCN(C(=O)Cc3cc(F)c(F)c(F)c3)C2)ccc1-c1cn(C)c(C(F)F)n1` , thanks. 0.25 nM

Reported Ki, compound `COc1cc([C@@H](C)C(=O)N2CC[C@H](Nc3ccc(-c4nc5ccccn5n4)c(C)n3)C2)c(Cl)cn1` : ____ 0.51 nM

----------
- system tested: hMC4R (Homo sapiens (Human), UniProt P32245)
- protocol summary: In vitro binding affinity assay using hMC4R (radioligand competition binding, CHO cell membranes)
- condition info: competition with [125I]-(Nle4, D-Phe7)-α-MSH 0.5 nM; Ki from IC50 by Cheng-Prusoff; read-out: Ki (nM) geometric mean
property name: Ki
Don't forget the unit after the value.

What measured Ki goes with COc1cc([C@@H](C)C(=O)N2CC[C@H](Nc3ccc(-c4nc(C(F)F)n(C)n4)c(C)n3)C2)c(Cl)cn1 (single isomer, unassigned) [Example 24A] ? 20 nM

Request the reported Ki associated with Cc1ccccc1[C@@H](C)C(=O)N1CC[C@H](Nc2ccc(-c3cn(C)c(C(C)(F)F)n3)c(C)n2)C1 (single isomer, unassigned) [Example 15A] 150 nM

GET /values?readout=Ki&item= COc1cc([C@@H](C)C(=O)N2CC[C@H](Nc3ccc(-c4nc(C(F)F)n(C)n4)c(C)n3)C2)ccn1 (single isomer, unassigned) [Example 33B] 1.1 nM

----------
- system tested: hMC4R (Homo sapiens (Human), UniProt P32245)
- protocol summary: In vitro binding affinity assay using hMC4R (radioligand competition binding, CHO cell membranes)
- condition info: competition with [125I]-(Nle4, D-Phe7)-α-MSH 0.5 nM; Ki from IC50 by Cheng-Prusoff; read-out: Ki (nM) geometric mean
property name: Ki (nM)
# unit: nM | format: bare number

Give its Ki value. Item: Cc1nc(N[C@H]2CCN(C(=O)Cc3ccc(F)cc3)C2)ccc1-c1noc(C(F)(F)F)n1 [Example 27] 950

Which Ki reading was recorded for the molecule COc1cc(CC(=O)N2CC[C@H](Nc3ccc(-c4cn(C)cn4)c(C)n3)C2)ccc1C [Example 31] ? 1

Query: Ki; subject: COc1cc([C@@H](C)C(=O)N2CC[C@H](Nc3ccc(-c4cn(C)c(C(F)F)n4)c(C)n3)C2)cc(OC)n1 (single isomer, unassigned) [Example 12A] 0.31

So what's the measured Ki for this one? Cc1nc(N[C@H]2CCN(C(=O)[C@H](C)c3ccccc3)C2)ccc1-c1cn(C)c(C(F)F)n1 [Example 11] 1.1

Sample COc1ccc(C)c([C@@H](C)C(=O)N2CC[C@H](Nc3ccc(-c4cn(C)cn4)c(C)n3)C2)c1 (single isomer, unassigned) [Example 20A] — what was its Ki? 1100

Request the reported Ki associated with COc1cc(OC(F)F)cc([C@@H](C)C(=O)N2CC[C@H](Nc3ccc(-c4nc(C(C)(F)F)n(C)n4)c(C)n3)C2)c1 (single isomer, unassigned) [Example 40B] 0.29

----------
- system tested: hMC4R (Homo sapiens (Human))
- protocol summary: In vitro binding affinity assay using hMC4R (radioligand competition binding, CHO cell membranes)
- condition info: competition with [125I]-(Nle4, D-Phe7)-α-MSH 0.5 nM; Ki from IC50 by Cheng-Prusoff; read-out: Ki (nM) geometric mean
- Description: The binding affinity of test compounds at the α-melanocyte-stimulating hormone receptor (hMC4R) was assessed using a radioligand competition binding assay. […] Compounds were solubilized in 100% dimethyl sulfoxide (DMSO) to a concentration of 30 mM. […] The exact concentration of radioligand used for each experiment was determined by liquid scintillation counting and adjusted if necessary. […] The raw data (expressed as counts per minute) were analyzed using ActivityBase (IDBS Data Management Software). […]
Give measured Ki for each item. Keep answers brief.
Kindly answer with a numeric value in nM, unit omitted.

I have this compound here, COc1cc([C@@H](C)C(=O)N2CC[C@H](Nc3ccc(-c4cn(C)c(C(F)F)n4)c(C)n3)C2)cc(OC)n1 (single isomer, unassigned) [Example 12B] , and I need its recorded Ki. 7.7

Would you kindly share the measured Ki for `COc1cc([C@@H](C)C(=O)N2CC[C@H](Nc3ccc(-c4nc(C(C)(F)F)n(C)n4)c(C)n3)C2)c(F)cn1` ? 1

Which value of Ki has been reported for COc1ccc(C)c([C@@H](C)C(=O)N2CC[C@H](Nc3ccc(-c4cn(C)cn4)c(C)n3)C2)c1 (single isomer, unassigned) [Example 20B] in the records? 0.23

Query: Ki; subject: COc1cc([C@](C)(F)C(=O)N2CC[C@H](Nc3ccc(-c4cn(C)c(C(F)F)n4)c(C)n3)C2)ccn1 (single isomer, unassigned) [Example 36B] 4.3

Consider the compound COc1cc([C@@H](C)C(=O)N2CC[C@H](Nc3ccc(-c4ncccn4)c(C)n3)C2)c(C)cn1 (single isomer, unassigned) [Example 22B] and give its measured Ki. 2.1

Could you tell me which Ki is on file for `Cc1nc(N[C@H]2CCN(C(=O)C(F)(F)c3ccc(Cl)c(Cl)c3)C2)ccc1-c1cn(C)c(C(F)F)n1` ? 0.88

Hello, the source for this data is patent US20250129048A1, in case you need it.
